TEST PROTOCOL: Cell Viability - LYMP2-007 (AID 979);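 also: cells exposed to compound for 24 h before reading; 0% = DMSO only and the negative end = 92 µM tetraoctylammonium bromide; nearly all actives have a fitted effect of over 60% in size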
CONDITION DESCRIPTION: LYMP2-007 lymphoblastoid cell viability; series mostly up to 92.2 µM
Results filed as inconclusive are left out. The source made the active and inactive calls. Calls follow the shape of the dose curve; as a rule, active = well fitted cell-killing curve with a large enough effect; inconclusive = small, poorly fitted or top-dose-only effect; inactive = flat fitted curve, though single readings scatter.
REPORTED METRIC: outcome

Solved cases (4 shown):
{"columns": ["COMPOUND", "REPORTED METRIC", "OBSERVED MEASUREMENT"],
 "data": [
  ["CC(C)=CCC/C(C)=C/C=O", "outcome", "inactive"],
  ["Cc1ccc(C#N)cc1", "outcome", "inactive"],
  ["O=C1NC(=O)c2cc([N+](=O)[O-])ccc21", "outcome", "inactive"],
  ["CCCCCCCCCCCCOCC1CO1 (centres undefined)", "outcome", "inactive"]
]}

Query: # query: outcome of entry "CCCCCNCCCCC"
Response: inactive

Query: Consider next the compound "Cc1ccc([N+](=O)[O-])c(N)c1" in the same way.
Response: inactive

Query: Also "CC(=O)CCc1ccccc1" , if possible.
Response: inactive

Query: Same question, "Cc1ccc(Cl)cc1N" this time
Response: inactive

Query: Please give the result for "O=CNc1ccccc1" too.
Response: inactive

----------
Give activation for every item shown.
TEST PROTOCOL: qHTS assay for small molecule activators of the nuclear factor-kappa B (NF-kB) signaling pathway (AID 651749); also: % of control where 0% means no effect
CONDITION DESCRIPTION: NF-kB-bla ME-180 cells, beta-lactamase FRET ratio, 16 h; stronger effect = higher value
Results filed as inconclusive are left out.
Give the value, in units of %, as a plain number.

Query: Would you kindly share the measured activation for "C=C(C)C(N)=O" ?
Response: -0.276

Query: Consider next the molecule "c1ccc2n[nH]nc2c1" in the same way.
Response: 1

Query: Here is the next molecule: "Cc1ccccc1C(N)=O"
Response: 1.42

Query: Now this one: "CC(C)C=O"
Response: -1.3

Query: // same read-out, input: C[C@@H]1CC2(OC3C[C@@]4(C)C5=CC[C@H]6C(C)(C)C(O[C@@H]7OC[C@@H](O)[C@H](O)[C@H]7O)CC[C@@]67C[C@@]57CC[C@]4(C)C31)OC(O)C1(C)OC21 (stereo not given in full)
Response: -1.92

Query: And then "CC(C)CCOC(=O)/C=C/c1ccccc1" , what is it?
Response: -1.28

Query: Another: "Cc1ccc(Cl)cc1N"
Response: 0.369

Query: Item: "c1ccc2c(c1)Oc1ccccc1S2"
Response: -0.203

Query: Consider next the molecule "CCC(C)(C)C(=O)O" in the same way.
Response: -0.114

Query: Same again, this time with "CCCCC(=O)N(C)C"
Response: -0.0165

Query: And for "Nc1nc(-c2ccccc2)cs1" ?
Response: 0.279

Query: Can you handle "CCCCCCO" next?
Response: -0.278

Query: And then "O=C(Cl)c1ccccc1[N+](=O)[O-]" , what is it?
Response: -0.445

Query: How about "O=C(O)c1ccc(CO)o1" ?
Response: 0.608

Query: Consider next the molecule "Cc1ccc(CO)cc1" in the same way.
Response: -1.4

----------
TEST PROTOCOL: MultiTox-Fluor Cytotoxicity Assay - LYMP1-003 - Live Cells (AID 962);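 also: cells exposed to compound for 16 hours at 37 °C; 0% = DMSO only and full loss = 92 µM tetraoctylammonium bromide; cytotoxic hits lower the live-cell protease signal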
CONDITION DESCRIPTION: LYMP1-003 lymphoblastoid cells, MultiTox-Fluor live-cell protease fluorescence; series mostly up to 92.2 µM
Activity calls are given as the source filed them. Calls follow the shape of the dose curve; as a rule, active = well fitted cell-killing curve with a large enough effect; inconclusive = small, poorly fitted or top-dose-only effect; inactive = flat fitted curve, though single readings scatter.
REPORTED METRIC: outcome

{"columns": ["COMPOUND", "outcome"],
 "data": [
  ["CCN(Cc1ccccc1)c1ccccc1", "inactive"],
  ["c1ccc(Oc2ccccc2)cc1", "inactive"],
  ["Cc1c(C(=O)O)cccc1[N+](=O)[O-]", "inactive"],
  ["CCc1ccccc1O", "inactive"],
  ["OC/C(Br)=C(\\Br)CO", "inactive"]
]}

Query: # input compound: "COC(=O)CC#N" ; wanted: its outcome
Response: inactive

Query: What about this compound? "Cc1ccc([N+](=O)[O-])c(N)c1"
Response: inactive

Query: Repeat for the following compound: CC(C)(c1cc(Br)c(OCC(Br)CBr)c(Br)c1)c1cc(Br)c(OCC(Br)CBr)c(Br)c1 (stereo not given)
Response: inactive

Query: Next up: "NS(=O)(=O)O"
Response: inactive

Query: // next record "CCCCCCCCC"
Response: inactive

Cited source: PubChem BioAssay (NCATS)
